Tested on: UACC-62 melanoma
Assay: NCI tumour cell line growth inhibition, 48 h; in the data active means GI50 below about 0.43 µM; inactive means the rest
Tick one outcome: active, inactive

Data request: Field: outcome | Entry: Cc1cc(C2CC(O)C(CO)O2)c(Br)cc1Br (centres undefined)
Data returned: inactive

Data request: Field: outcome | Entry: Cn1cc(-c2nc(-c3c[nH]c4ccccc34)cs2)c2cccnc21
Data returned: active

Data request: Field: outcome | Entry: Nc1nc(N)c2c(n1)NC(c1ccc(Cl)cc1)C1CCc3ccccc3C1=N2 (centres undefined)
Data returned: inactive

Data request: Field: outcome | Entry: COc1ccc(C2CC(=O)Nc3c2c(C)nn3-c2nc3ccccc3[nH]2)cc1OC (centres undefined)
Data returned: inactive

----------
Tested on: NCI-H460 lung
Tick one outcome: active, inactive

Data request: Field: outcome | Entry: O=C(COc1ccc(Cl)cc1Cl)NNc1ccc([N+](=O)[O-])cc1
Data returned: inactive

Data request: Field: outcome | Entry: COc1cc(N2CCN(C(C)C)CC2)ccc1Nc1nc(Nc2ccc(F)cc2C(N)=O)c2cc[nH]c2n1
Data returned: active

Data request: Field: outcome | Entry: C/C=C1/CN2CCC34c5ccccc5N5C(=O)C(C6CC78c9ccccc9N9C(=O)C=CC(C%10CC7N6C/C%10=C/C)C98)=CC(C1CC23)C54 (stereo unspecified)
Data returned: inactive

Data request: Field: outcome | Entry: O=C(Nc1n[nH]c2cc(-c3ccc(F)cc3)ccc12)C1CC1
Data returned: inactive

Data request: Field: outcome | Entry: C=C1C(=O)O[C@H]2[C@H]1CC/C(COC(=O)NCCc1ccc(Br)cc1)=C\CC[C@@]1(C)O[C@@H]21
Data returned: inactive

Data request: Field: outcome | Entry: Cc1ccc2c(c1)n([O-])c(C(F)(F)F)c(C(=O)c1ccco1)[n+]2=O
Data returned: active

Data request: Field: outcome | Entry: O=C1NC(=O)/C(=C/c2ccc3nccc(-c4ccncc4)c3c2)S1
Data returned: inactive

Data request: Field: outcome | Entry: CCN(Cc1c(F)cccc1C(F)(F)F)c1ccc(CO)c(Cl)c1
Data returned: active

Data request: Field: outcome | Entry: Cn1cc(-c2nc(-c3c[nH]c4ccccc34)cs2)c2cccnc21
Data returned: active

Data request: Field: outcome | Entry: O=C(O)[C@@H](Cc1ccccc1)NS(=O)(=O)c1ccc(-c2ccccc2)cc1
Data returned: inactive

Data request: Field: outcome | Entry: COc1cccc(/C=C/C(=O)c2cc3c(N)c(C(=O)Nc4ccccc4)sc3nc2C)c1
Data returned: inactive

----------
System: NCI-H23 lung
Test: NCI tumour cell line growth inhibition, 48 h
resultType: TGI (µM)
A number alone suffices; assume µM.

Data request: Fill in TGI for N#Cc1ccccc1C#C/C=C\C#Cc1ccccn1 tested with NCI-H23 lung.
Data returned: 25.5

Data request: Fill in TGI for O=C1C(Nc2ccc(S(=O)(=O)Nc3cnc4ccccc4n3)cc2)=CC(=Nc2ccc(S(=O)(=O)Nc3cnc4ccccc4n3)cc2)c2ccccc21 tested with NCI-H23 lung.
Data returned: 36.1

Data request: Fill in TGI for CCOC1=C2N=C(C(CC)c3ccc(F)cc3)N=C2C(=O)c2ccccc21 (stereo not given) tested with NCI-H23 lung.
Data returned: 70.2

Data request: Fill in TGI for O=C(/C=C/c1cc2ccccc2[nH]c1=O)c1ccc(O)cc1 tested with NCI-H23 lung.
Data returned: 20
